Assay: Acute toxicity (LD 50), intraperitoneal administration
Type: in vivo
Conditions: mouse, in vivo, ip; mice, intraperitoneal; 50% of the animals died within 7 days
MEASURE: LD50 at 168 h (mg/kg)
Could you give me the number in mg/kg? Just the number is fine.

-- ask Query: LD50 at 168 h; subject: Cc1nccn1-c1ccc(NN)nn1
-- reply 193

-- ask Query: LD50 at 168 h; subject: CCc1nccn1-c1ccc(NN)nn1
-- reply 156

-- ask Query: LD50 at 168 h; subject: NNc1nnc(NN)c2ccccc12 [Dihydralazine, dihydralazine, reference compound]
-- reply 206

-- ask Query: LD50 at 168 h; subject: CC(C)=NNc1ccc(-n2ccnc2C)nn1
-- reply 98.6

-- ask Query: LD50 at 168 h; subject: CCc1nccn1-c1ccc(NN=C(C)C)nn1
-- reply 124

* * *

Recorded ED20 by entry
Test system: spontaneously hypertonic rats
Experiment: Anti-hypertensive action on spontaneously hypertonic rats (SHR), oral administration
Assay type: in vivo, rat (Okamoto
Conditions: Rattus norvegicus; SHR, oral; dose which lowers systolic pressure by 20%, 2 hours after administration; read-out: Anti-hypertensive action ED 20%
Please make sure the unit comes right after the number.

- COMPOUND: "CCc1nccn1-c1ccc(NN=C(C)C)nn1"
  MEASURED: "2.48 mg/kg"
- COMPOUND: "CCc1nccn1-c1ccc(NN)nn1"
  MEASURED: "2.91 mg/kg"
- COMPOUND: "NNc1nnc(NN)c2ccccc12 [Dihydralazine, dihydralazine, reference compound]"
  MEASURED: "6.85 mg/kg"
- COMPOUND: "CC(C)=NNc1ccc(-n2ccnc2C)nn1"
  MEASURED: "2.46 mg/kg"

# next compound below
-- ask Query: ED20; subject: Cc1nccn1-c1ccc(NN)nn1
-- reply 1.41 mg/kg

* * *

Test system: mice
Assay: Acute toxicity (LD 50), intraperitoneal administration
Assay type: in vivo
Conditions: mice, intraperitoneal; dihydralazine = 1.00
MEASURE: Toxicity R.E.

- COMPOUND: "CC(C)=NNc1ccc(-n2ccnc2C)nn1"
  Toxicity R.E.: 2.09

-- ask Query: Toxicity R.E.; subject: CCc1nccn1-c1ccc(NN=C(C)C)nn1
-- reply 1.66

-- ask Query: Toxicity R.E.; subject: CCc1nccn1-c1ccc(NN)nn1
-- reply 1.32

-- ask Query: Toxicity R.E.; subject: Cc1nccn1-c1ccc(NN)nn1
-- reply 1.06

-- ask Query: Toxicity R.E.; subject: NNc1nnc(NN)c2ccccc12 [Dihydralazine, dihydralazine, reference compound]
-- reply 1.00

* * *

Experiment: Acute toxicity (LD 50), intraperitoneal administration
Format: in vivo
Details: mouse, in vivo, ratio LD 50 / anti-hypertensive dose; read-out: toxic doses (LD 50) times as great as the anti-hypertensive doses
MEASURE: selectivity ratio

- COMPOUND: "NNc1nnc(NN)c2ccccc12 [Dihydralazine, dihydralazine, reference compound]"
  selectivity ratio: 30

# next compound below
-- ask Query: selectivity ratio; subject: CC(C)=NNc1ccc(-n2ccnc2C)nn1
-- reply 40
